test: Freeze-thaw stability in spiked pooled human plasma; type: physicochemical; conditions: validation standard LLOV
List of Freeze-Thaw Accuracy [%] values.
measurement label: Freeze-Thaw Accuracy [%] (%)

In [3]: df
Out[3]:
                              smiles_record  readout_number
0  CNCc1ccc(-c2[nH]c3cc(F)cc4c3c2CCNC4=O)cc1           104.4
1  CNC(=O)c1ccccc1Sc1ccc2c(/C=C/c3ccccn3)n[nH]c2c1           102.1
2  Cc1nc(Nc2ncc(C(=O)Nc3c(C)cccc3Cl)s2)cc(N2CCN(CCO)CC2)n1           108.8
3  C=CC(=O)Nc1cc(Nc2nccc(-c3cn(C)c4ccccc34)n2)c(OC)cc1N(C)CCN(C)C            95.6

----------
experiment: Autosampler stability of ready for injection samples; assay type: physicochemical, human; conditions: validation standard LLOV
List of Autosampler (24h, 4°C) Accuracy [%] values.
measurement label: Autosampler (24h, 4°C) Accuracy [%] (%)

In [3]: df
Out[3]:
                                   compound                    measurement_label  unit_string  readout_number
0  O=C1CN2Cc3c(ccc(Cl)c3Cl)N=C2N1 [Anagrelide]  Autosampler (24h, 4°C) Accuracy [%]            %           111.7
1  CC[C@H](Nc1ncnc2[nH]cnc12)c1nc2cccc(F)c2c(=O)n1-c1ccccc1  Autosampler (24h, 4°C) Accuracy [%]            %           109.4
2  Cc1c(C(=O)Nc2ccc(N3C[C@@H](C)O[C@@H](C)C3)nc2)cccc1-c1ccc(OC(F)(F)F)cc1  Autosampler (24h, 4°C) Accuracy [%]            %           109.3
3  Nc1cccc2c1CN(C1CCC(=O)NC1=O)C2=O (centres unmarked) [Lenalidomide]  Autosampler (24h, 4°C) Accuracy [%]            %            80.7
4  COc1cc2ncnc(Nc3ccc(F)c(Cl)c3)c2cc1NC(=O)/C=C/CN1CCCCC1  Autosampler (24h, 4°C) Accuracy [%]            %            93.3
5  Cc1cc(Nc2ncc(Cl)c(Nc3ccccc3S(=O)(=O)C(C)C)n2)c(OC(C)C)cc1C1CCNCC1  Autosampler (24h, 4°C) Accuracy [%]            %            97.1
6  C=CC(=O)N1CCC[C@@H](n2nc(-c3ccc(Oc4ccccc4)cc3)c3c(N)ncnc32)C1  Autosampler (24h, 4°C) Accuracy [%]            %            97.6
7  CC(=O)c1c(C)c2cnc(Nc3ccc(N4CCNCC4)cn3)nc2n(C2CCCC2)c1=O  Autosampler (24h, 4°C) Accuracy [%]            %            99.4

----------
assay: Short-term stability in spiked pooled human plasma (bench-top, 4 °C, 56 °C); conditions: validation standard LLOV
measurement label: Short-time stability (24h, RT, with daylight) Accuracy [%] (%)

>>> print(df.to_string())
                               smiles_record  unit_string  readout_number
 0  CC(C)(C)c1nc(-c2cccc(NS(=O)(=O)c3c(F)cccc3F)c2F)c(-c2ccnc(N)n2)s1            %            97.0
 1  C=CC(=O)Nc1cc(Nc2nccc(-c3cn(C)c4ccccc34)n2)c(OC)cc1N(C)CCN(C)C            %            62.0
 2  O=C(c1ccc(F)c(F)c1Nc1ccc(I)cc1F)N1CC(O)([C@@H]2CCCCN2)C1            %            98.6
 3  COc1cc2nccc(Oc3ccc(NC(=O)Nc4cc(C)on4)c(Cl)c3)c2cc1OC            %            99.0
 4  COC(=O)c1ccc2c(c1)NC(=O)/C2=C(\Nc1ccc(N(C)C(=O)CN2CCN(C)CC2)cc1)c1ccccc1            %            99.4
 5  Cc1cc(Nc2ncc(Cl)c(Nc3ccccc3S(=O)(=O)C(C)C)n2)c(OC(C)C)cc1C1CCNCC1            %            70.9
 6  CN(C)C/C=C/C(=O)Nc1cc2c(Nc3ccc(F)c(Cl)c3)ncnc2cc1O[C@H]1CCOC1            %            64.3
 7  COc1cc2c(Nc3ccc(Br)cc3F)ncnc2cc1OCC1CCN(C)CC1            %            81.4
 8  Cc1nc(Nc2ncc(C(=O)Nc3c(C)cccc3Cl)s2)cc(N2CCN(CCO)CC2)n1            %            90.7
 9  COc1cc2nccc(Oc3ccc(NC(=O)NC4CC4)c(Cl)c3)c2cc1C(N)=O            %           106.4
10  Cc1ccc(NC(=O)c2ccc(CN3CCN(C)CC3)cc2)cc1Nc1nccc(-c2cccnc2)n1            %            83.7
11  CS(=O)(=O)CCNCc1ccc(-c2ccc3ncnc(Nc4ccc(OCc5cccc(F)c5)c(Cl)c4)c3c2)o1            %             5.2
12  Cn1cnc2c(F)c(Nc3ccc(Br)cc3F)c(C(=O)NOCCO)cc21            %           111.6
13  CCCS(=O)(=O)Nc1ccc(F)c(C(=O)c2c[nH]c3ncc(-c4ccc(Cl)cc4)cc23)c1F            %            93.0
14  COc1cc2ncnc(Nc3ccc(F)c(Cl)c3)c2cc1OCCCN1CCOCC1            %            83.0
15  CNC(=O)c1cc(Oc2ccc(NC(=O)Nc3ccc(Cl)c(C(F)(F)F)c3)c(F)c2)ccn1            %            88.6
16  C[C@H]1Oc2cc(cnc2N)-c2c(nn(C)c2C#N)CN(C)C(=O)c2ccc(F)cc21            %            96.4
17  CNCc1ccc(-c2[nH]c3cc(F)cc4c3c2CCNC4=O)cc1            %           100.0
18  N#CC[C@H](C1CCCC1)n1cc(-c2ncnc3[nH]ccc23)cn1            %           100.4
